B1: Lysozyme C, P61626 (parent)
chain: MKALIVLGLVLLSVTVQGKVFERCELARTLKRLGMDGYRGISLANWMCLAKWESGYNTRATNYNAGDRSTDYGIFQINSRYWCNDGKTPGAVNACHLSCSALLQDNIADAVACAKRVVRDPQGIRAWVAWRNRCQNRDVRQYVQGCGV

Variants of: B1
Conditions: Homo sapiens; pH 2.7; Thermal; DSC; glycine 0.05 M; reversible: yes; structure 1LZ1; whole UniProt chain shown
# reported heat capacity change of unfolding; entries follow
MEASUREMENT TYPE: heat capacity change of unfolding (kcal/mol/K)

# SEQUENCE INPUT, ENDPOINT VALUE
measured = [
    ("MKALIVLGLVLLSVTVQGKVFERCELARTLKRLGMDGYRGVSLANWMCLAKWESGYNTRATNYNAGDRSTDYGIFQINSRYWCNDGKTPGAVNACHLSCSALLQDNIADAVACAKRVVRDPQGIRAWVAWRNRCQNRDVRQYVQGCGV [I41V]", 1.82),
    ("MKALIVLGLVLLSVTVQGKAFERCELARTLKRLGMDGYRGISLANWMCLAKWESGYNTRATNYNAGDRSTDYGIFQINSRYWCNDGKTPGAVNACHLSCSALLQDNIADAVACAKRVVRDPQGIRAWVAWRNRCQNRDVRQYVQGCGV [V20A]", 1.44),
    ("MKALIVLGLVLLSVTVQGKVFERCELARTLKRLGMDGYRGISLANWMCLAKWESGYNTRATNYNAGDRSTDYGIFQINSRYWCNDGKTPGAVNACHLSCSALLQDNIADAAACAKRVVRDPQGIRAWVAWRNRCQNRDVRQYVQGCGV [V111A]", 1.53),
    ("MKALIVLGLVLLSVTVQGKVFERCELARTLKRLGMDGYRGISLANWMCLAKWESGYNTRATNYNAGDRSTDYGIFQINSRYWCNDGKTPGAVNACHLSCSALLQDNIADAVACAKRVARDPQGIRAWVAWRNRCQNRDVRQYVQGCGV [V118A]", 1.84),
    ("MKALIVLGLVLLSVTVQGKVFERCELARTLKRLGMDGYRGISLANWMCLAKWESGYNTRATNYNAGDRSTDYGIFQVNSRYWCNDGKTPGAVNACHLSCSALLQDNIADAVACAKRVVRDPQGIRAWVAWRNRCQNRDVRQYVQGCGV [I77V]", 1.67),
    ("MKALIVLGLVLLSVTVQGKVFERCELARTLKRLGMDGYRGISLANWMCLAKWESGYNTRATNYNAGDRSTDYGIFQINSRYWCNDGKTPGAVNACHLSCSALLQDNIADAVACAKRVVRDPQGIRAWAAWRNRCQNRDVRQYVQGCGV [V128A]", 1.51),
    ("MKALIVLGLVLLSVTVQGKVFERCELARTLKRLGMDGYRGISLANWMCLAKWESGYNTRATNYNAGDRSTDYGIFQINSRYWCNDGKTPGAVNACHLSCSALLQDNIADAVACAKRVVRDPQGIRAWVAWRNRCQNRDVRQYVQGCGA [V148A]", 1.87),
    ("MKALIVLGLVLLSVTVQGKVFERCELARTLKRLGMDGYRGISLANWMCLAKWESGYNTRATNYNAGDRSTDYGIFQINSRYWCNDGKTPGAANACHLSCSALLQDNIADAVACAKRVVRDPQGIRAWVAWRNRCQNRDVRQYVQGCGV [V92A]", 1.53),
    ("MKALIVLGLVLLSVTVQGKVFERCELARTLKRLGMDGYRGISLANWMCLAKWESGYNTRATNYNAGDRSTDYGVFQINSRYWCNDGKTPGAVNACHLSCSALLQDNIADAVACAKRVVRDPQGIRAWVAWRNRCQNRDVRQYVQGCGV [I74V]", 1.29),
    ("MKALIVLGLVLLSVTVQGKVFERCELARTLKRLGMDGYRGISLANWMCLAKWESGYNTRATNYNAGDRSTDYGIFQINSRYWCNDGKTPGAVNACHLSCSALLQDNVADAVACAKRVVRDPQGIRAWVAWRNRCQNRDVRQYVQGCGV [I107V]", 1.84),
    ("MKALIVLGLVLLSVTVQGKVFERCELARTLKRLGMDGYRGISLANWMCLAKWESGYNTRATNYNAGDRSTDYGIFQINSRYWCNDGKTPGAVNACHLSCSALLQDNIADAVACAKRVVRDPQGIRAWVAWRNRCQNRDVRQYAQGCGV [V143A]", 1.56),
    ("MKALIVLGLVLLSVTVQGKVFERCELARTLKRLGMDGYRGISLANWMCLAKWESGYNTRATNYNAGDRSTDYGIFQINSRYWCNDGKTPGAVNACHLSCSALLQDNIADAVACAKRVVRDPQGVRAWVAWRNRCQNRDVRQYVQGCGV [I124V]", 1.72),
    ("MKALIVLGLVLLSVTVQGKVFERCELARTLKRLGMDGYRGISLANWMCLAKWESGYNTRATNYNAGDRSTDYGIFQINSRYWCNDGKTPGAVNACHLSCSALLQDNIADAVACAKRVVRDPQGIRAWVAWRNRCQNRDARQYVQGCGV [V139A]", 1.37),
    ("MKALIVLGLVLLSVTVQGKVFERCELARTLKRLGMDGYRGISLANWMCLAKWESGYNTRATNYNAGDRSTDYGIFQINSRYWCNDGKTPGAVNACHLSCSALLQDNIADAVACAKRAVRDPQGIRAWVAWRNRCQNRDVRQYVQGCGV [V117A]", 1.27),
]
